Just for reference, ChEMBL document CHEMBL4052670 is where these values come from.

- experimentDescription: Half life in phosphate buffered saline at pH 7.4 by HPLC analysis
- Format: physicochemical
# note: exactly 100 h is not below, so it is NOT MET; use MET for half-life strictly under it

>>> classlabel("CN(/N=N/c1ccc(C#N)cc1)C(=O)Cc1ccc(O)cc1")
"MET"

Is half-life of CN(/N=N/c1ccc(C(N)=O)cc1)C(=O)CCCCc1ccc(O)cc1 strictly below 100 h?
NOT MET

Regarding CN(/N=N/c1ccc(C#N)cc1)C(=O)CCc1ccc(O)cc1 , kindly confirm whether its half-life is beneath 100 h.
MET

# strict comparison: is reported half-life < 100 h? input = CC(=O)c1ccc(/N=N/N(C)C(=O)CCc2ccc(O)cc2)cc1
NOT MET

Consider the molecule CN(/N=N/c1ccc(C#N)cc1)C(=O)CCCCc1ccc(O)cc1 . Is its half-life strictly less than 100 h?
MET

Would you kindly verify if half-life of COC(=O)c1ccc(/N=N/N(C)C(=O)CCCCc2ccc(O)cc2)cc1 is strictly less than 100 h?
NOT MET

###

- experimentDescription: Half life in 80% human plasma by HPLC analysis
- Type: ADME, cell-free
propertyLabel: half-life (h)
Could you give me the number in h? Just the number is fine.

>>> obsvalue("CC(=O)c1ccc(/N=N/N(C)C(=O)CCc2ccc(O)cc2)cc1")
14.6
>>> obsvalue("COC(=O)c1ccc(/N=N/N(C)C(=O)CCCCc2ccc(O)cc2)cc1")
17.4
>>> obsvalue("CCOC(=O)c1ccc(/N=N/N(C)C(=O)CCCCc2ccc(O)cc2)cc1")
26.3
>>> obsvalue("CN(/N=N/c1ccc(C#N)cc1)C(=O)CCCCc1ccc(O)cc1")
11.8
>>> obsvalue("CN(/N=N/c1ccc(C(N)=O)cc1)C(=O)CCCCc1ccc(O)cc1")
55.4
>>> obsvalue("CN(/N=N/c1ccc(C#N)cc1)C(=O)CCc1cccc(O)c1")
2.7
>>> obsvalue("Cc1ccc(/N=N/N(C)C(=O)CCCCc2ccc(O)cc2)cc1")
79.7
>>> obsvalue("COC(=O)c1ccc(/N=N/N(C)C(=O)CCc2cccc(O)c2)cc1")
7.8

half-life reported for this molecule CN(/N=N/c1ccc(C#N)cc1)C(=O)Cc1ccc(O)cc1 : 1.48

Value of half-life reported for the molecule CN(/N=N/c1ccc(C#N)cc1)C(=O)CCc1ccc(O)cc1 is 5.8

Measured half-life of CC(=O)c1ccc(/N=N/N(C)C(=O)CCCCc2ccc(O)cc2)cc1 : 32.7

half-life for COC(=O)c1ccc(/N=N/N(C)C(=O)CCc2ccc(O)cc2)cc1 is 7.3

Entry CN(/N=N/c1ccc(C(N)=O)cc1)C(=O)CCc1ccc(O)cc1 , half-life reported as 48.5

Just so you know, measured half-life for CN(/N=N/c1ccc(Br)cc1)C(=O)CCCCc1ccc(O)cc1 came out at 162

###

- experimentDescription: Prodrug activation assessed as mushroom tyrosinase-mediated compound hydrolysis by measuring half life in presence of 100 U/ml of tyrosinase by HPLC analysis
- setupConditions: agaricus bisporus
propertyLabel: t1/2 (min)
A number alone suffices; assume min.

>>> obsvalue("CN(/N=N/c1ccc(C#N)cc1)C(=O)CCCCc1ccc(O)cc1")
4.2
>>> obsvalue("CC(=O)c1ccc(/N=N/N(C)C(=O)CCc2ccc(OC(=O)CCc3ccc(O)cc3)cc2)cc1")
5.5

API: the following record is the query input.
The measured t1/2 associated with Cc1ccc(/N=N/N(C)C(=O)CCCCc2ccc(O)cc2)cc1 reads 0.74
